- Tested on: BT-549 breast
- experimental protocol: NCI tumour cell line growth inhibition, 48 h
quantity: GI50

Nc1cc(-c2ccccc2)ccc1O :: 79.3 µM
Cn1c(COC(=O)N2CCCCC2)nc2c(N3CCOCC3)nc(-c3ccccc3)nc21 :: 1.01 µM

Moving on to another compound below.
Given C=CC1CC12C(=O)C1OC2(C)C2C(=O)c3c(ccc4c3ccc3ccccc34)C(=O)C12 (stereo not drawn) , state its recorded GI50.
58.9 µM

====

- System: UACC-257 melanoma
- experimental protocol: NCI tumour cell line growth inhibition, 48 h
Can you tell me TGI for the items I'm about to list?

CC(=O)OC1CC2CCC1(C)C2(C)C (stereo unspecified) :: > 100 µM
O=c1[nH]c(Br)nc2c(Br)c[nH]c12 :: > 100 µM
Cc1ccc(C)c(NC(=O)c2cc(-c3ccc([N+](=O)[O-])cc3)nc(N)n2)c1 :: > 100 µM
CC(=O)Nc1ncc(Sc2ccccc2C(=O)O)s1 :: > 100 µM
COc1cc(OC)c2c(=O)c(O)c(-c3ccc(OC)c(OC)c3)oc2c1 :: > 100 µM

Given `NNC(=O)c1c(Cl)c(Cl)c(Cl)c(Cl)c1-c1nc2ccccc2[nH]1` , state its recorded TGI.
28.1 µM

====

- Test system: OVCAR-8 ovarian
- experimental protocol: NCI tumour cell line growth inhibition, 48 h
quantity: GI50

CCOC(=O)CC1(O)C=CC(=O)C=C1 :: 0.425 µg/mL
CC(=O)OC1COC(S[As](C)C)C(OC(C)=O)C1OC(C)=O (stereo unspecified) :: 0.735 µM
COc1ccc2c(c1)c(C1(c3cn(C)c4ccc(OC)cc34)C(=O)Nc3ccc(F)cc31)cn2C :: 4.28 µM
CCC(Sc1nnc2c3ccccc3n(CC)c2n1)C(=O)Nc1ccccc1OC (stereo unspecified) :: > 100 µM

Parameter requested: GI50. Apply to each item below.
1. CCC[C@H](N[C@@H]1CCc2cc(F)cc(F)c2C1)C(=O)Nc1cn(C(C)(C)CNCC(C)(C)C)cn1
2. COc1cc(CSc2nc3ccc(C)cc3c(=O)n2Cc2ccccc2)cc(OC)c1OC
3. CCC[CH2][Sn]([CH2]CCC)([O]C(=O)c1cccc(F)c1)[O]C(=O)c1cccc(F)c1
4. Brc1ccc([I+]c2ccc(Br)cc2)cc1
5. COC(=O)CCC(=O)c1c(C)[nH]c(/C=C2\N=C(c3ccc[nH]3)C=C2OC)c1C
6. O=C(COc1cccc(/C=C2\COc3ccccc3C2=O)c1)Nc1nccs1

["27.5 µM", "4.41 µM", "1.22 µM", "1.08 µM", "0.754 µM", "3.4 µM"]

Given `CCCCC(=O)N/N=C/c1cc(I)cc(I)c1O` , state its recorded GI50.
2.26 µM

====

Can you tell me log10 TGI for the items I'm about to list?
- Test system: RXF 393 renal
- experimental protocol: NCI tumour cell line growth inhibition, 48 h
Short version: log10 scale, TGI, µM.

Some compounds with recorded log10 TGI:
O=C(O)CSc1cc(-c2ccccc2)nc2ccccc12 :: 1.98
O=C(/C=C/c1ccc(O)c(O)c1)OCCc1cccc2ccccc12 :: 1.40
O=C1/C(=C/c2ccccc2Cl)N=C(c2ccccc2)N1Cc1ccco1 :: 1.97
CCCNCc1nc2ccc(Br)cc2c(=O)n1CCC :: 1.46
CCN(CC)c1ccc2c(c1)Oc1nc(N)c(C#N)c(N)c1C2Sc1ccc(SC)cc1 (stereo unspecified) :: 0.52

Parameter requested: log10 TGI. Apply to each item below.
1. CO[C@@H]1[C@@H](OC2OC(C)C(OC3CC(C)(O)C(OC(=O)CC(C)C)C(C)O3)C(N(C)C)C2O)[C@@H](CC=O)C[C@@H](C)C(=O)/C=C/C2O[C@H]2C[C@@H](C)OC(=O)C[C@H]1OC(C)=O (stereo partly specified)
2. CCC[CH2][Sn]([CH2]CCC)([O]C(=O)c1cccc(F)c1)[O]C(=O)c1cccc(F)c1
3. Brc1ccc([I+]c2ccc(Br)cc2)cc1
4. NNC(=O)c1c(Cl)c(Cl)c(Cl)c(Cl)c1-c1nc2ccccc2[nH]1

[1.81, -0.12, 1.06, 1.34]

Parameter requested: log10 TGI. Apply to each item below.
1. CC(=O)O[C@@H]1CO[C@H]2O[C@H]3[C@@H](C(C=O)=C[C@H](O)[C@@H]4C5=C(C(C)C)CC[C@]5(C)CC[C@@]34C)[C@@]2(O)C1=O
2. N#Cc1ccccc1C#C/C=C\C#Cc1ccc(OCCCNC(=O)c2cc3ccccc3[nH]2)cc1
3. Cc1ccc(/C=C/C(=O)c2c([O-])on[n+]2-c2ccccc2)cc1

[-0.44, 1.72, 0.56]

====

- System: NCI-H23 lung
- experimental protocol: NCI tumour cell line growth inhibition, 48 h
quantity: GI50

Some molecules with recorded GI50:
COc1ccc(O)c(C(=O)c2ccc(C(=O)O[C@@H]3CCCNC[C@H]3NC(=O)c3ccncc3)cc2)c1F :: 1.91 µM
COc1cccc(/C=N\Nc2ccc([N+](=O)[O-])cn2)c1O :: 2.92 µM
CCCN(CCC)c1ccc(CO)c(C)c1 :: 35.4 µM
CCCCCCCCCCCCCCCc1cc(O)ccc1N :: > 96.2 µM

Lab note: need GI50 for `O=C1/C(=C/c2ccccc2Cl)N=C(c2ccccc2)N1Cc1ccco1` on NCI-H23 lung, anyone have it?
40.5 µM

====

- Test system: HL-60(TB) leukemia
- experimental protocol: NCI tumour cell line growth inhibition, 48 h
quantity: TGI

Some compounds with recorded TGI:
NNC(=O)c1c(Cl)c(Cl)c(Cl)c(Cl)c1-c1nc2ccccc2[nH]1 :: 38.1 µM
CC(C)C(C/C=C1/CC(CO)(COC(=O)CC(C(C)C)C(C)C)OC1=O)C(C)C (stereo not given) :: 11.7 µM
O=C(N/N=C1\CCc2ccccc2C1)N/N=C1\CCc2ccccc2C1 :: > 10 µM
CS(=O)(=O)CCNCc1ccc(-c2ccc3ncnc(Nc4ccc(OCc5cccc(C(F)(F)F)c5)cc4)c3c2)o1 :: 10.9 µM
CC(=O)Oc1ccc2c(c1)c1c(=O)oc(N(C)C)nc1n2Cc1ccccc1 :: > 100 µM

Parameter requested: TGI. Apply to each item below.
1. Cc1ccc(NC(=O)/C(CC(=O)c2c[n+](=O)c3ccccc3n2O)=N\NC(=O)C[n+]2ccccc2)cc1
2. Cc1csc2nc(-c3ccc([N+](=O)[O-])cc3)c(/C=N/N=C(N)N)n12
3. O=C1CCCc2c1c1c(n2Cc2ccccc2)-c2ccccc2C1=O

> 100 µM
4.49 µM
58.7 µM

Parameter requested: TGI. Apply to each item below.
1. O=[N+]([O-])c1ccccc1N=Nc1c(O)[nH]c2ccccc12
2. Cn1c(CCC#N)nc2ccc(Br)cc2c1=O

1: > 100 µM; 2: > 100 µM

====

- System: SK-OV-3 ovarian
- experimental protocol: NCI tumour cell line growth inhibition, 48 h
Can you tell me TGI for the items I'm about to list?

COC(OC)c1cccc2c1C1(O)CCC3(CC21)OCCCCO3 (centres undefined) :: > 100 µM
CC(ONC(=O)c1cc(C(F)(F)F)cc(C(F)(F)F)c1)C(=O)Nc1ccc(Cl)cc1 (centres undefined) :: > 85.8 µM
CC(C)=CCc1c(O)cc(/C=C/c2cc(O)c3c(c2)C[C@@H]2C(C)(C)[C@H](O)[C@H](O)C[C@@]2(C)O3)cc1O :: 3.73 µM
Cn1c(CCC#N)nc2ccc(Br)cc2c1=O :: > 100 µM
CC1CCCC2=C1C(c1ccc(Cl)cc1)n1c(s/c(=C\c3ccc(Cl)cc3)c1=O)=N2 (centres undefined) :: > 100 µM
COP(C)(=O)/C(Cc1ccccc1)=N\O (centres undefined) :: > 100 µM

Parameter requested: TGI. Apply to each item below.
1. Cc1ccc2c(c1)NC(=O)CCSSCCC(=O)N2
2. CCCNCc1nc2ccc(Br)cc2c(=O)n1CCC
3. COC(=O)C1=Nc2c(C)nn(-c3ccccc3)c2N=C(c2ccc(C)cc2)C1
4. CC(C)OP(=O)(CN(C)/C(F)=N\C(F)(F)F)OC(C)C
5. CCOC(=O)/N=C(\N)SCc1ccccc1

> 100 µM
32.6 µM
> 10 µM
> 100 µM
> 100 µM

====

Can you tell me TGI for the items I'm about to list?
- Test system: EKVX NSCLC
- experimental protocol: NCI tumour cell line growth inhibition, 48 h

COc1cc(/C=C/C(C)=O)ccc1OP(=O)(O)O :: > 100 µM

Parameter requested: TGI. Apply to each item below.
1. O=C(Nc1cc(C(F)(F)F)ccc1F)Nc1n[nH]c2ccccc12
2. CN(C)CCNc1ccc([N+](=O)[O-])c2nc3ccccc3c(N)c12
3. CCC(Sc1nnc2c3ccccc3n(CC)c2n1)C(=O)Nc1ccccc1OC (centres undefined)
4. ClCCN(CCCl)c1ccc(-n2cnc3c(Cl)ncnc32)cc1
5. CC(=O)c1ccc(Oc2ccc(/C(C)=N\N=C(N)N)cc2)cc1
6. O=C1c2cc3ccccc3cc2C2(c3ccc(Cl)cc3)N[C@H]3CCCC[C@@H]3N12 (some centres undefined)
7. Cn1c(CCC#N)nc2ccc(Br)cc2c1=O
8. CCC1CC2CN3CCc4c([nH]c5c(-c6c(OC)ccc7c8c([nH]c67)[C@]6(C(=O)OC)CC7CC(CC)C6N(CC8)C7)c(O)ccc45)[C@](C(=O)OC)(C2)C13 (some centres undefined)

["> 100 µM", "5.4 µM", "> 30.1 µM", "3.66 µM", "16.7 µM", "26.8 µM", "> 100 µM", "39.7 µM"]

Parameter requested: TGI. Apply to each item below.
1. O=C(O)/C(=C/c1ccccc1[N+](=O)[O-])c1ccccc1
2. Nc1cc(-c2ccccc2)ccc1O

> 100 µM
> 100 µM

Parameter requested: TGI. Apply to each item below.
1. CC(=O)/C=C/C1=C(c2cc3ccccc3s2)c2ccccc2CC1
2. CS(=O)(=O)CCNCc1ccc(-c2ccc3ncnc(Nc4ccc(OCc5cccc(C(F)(F)F)c5)cc4)c3c2)o1

> 100 µM
> 23.3 µM
